This collection of values is drawn from paper PMC10608451.

# Test System: T1, angiotensin-I-converting enzyme (UniProt P12822 34-1260)
# T1 sequence (looked up): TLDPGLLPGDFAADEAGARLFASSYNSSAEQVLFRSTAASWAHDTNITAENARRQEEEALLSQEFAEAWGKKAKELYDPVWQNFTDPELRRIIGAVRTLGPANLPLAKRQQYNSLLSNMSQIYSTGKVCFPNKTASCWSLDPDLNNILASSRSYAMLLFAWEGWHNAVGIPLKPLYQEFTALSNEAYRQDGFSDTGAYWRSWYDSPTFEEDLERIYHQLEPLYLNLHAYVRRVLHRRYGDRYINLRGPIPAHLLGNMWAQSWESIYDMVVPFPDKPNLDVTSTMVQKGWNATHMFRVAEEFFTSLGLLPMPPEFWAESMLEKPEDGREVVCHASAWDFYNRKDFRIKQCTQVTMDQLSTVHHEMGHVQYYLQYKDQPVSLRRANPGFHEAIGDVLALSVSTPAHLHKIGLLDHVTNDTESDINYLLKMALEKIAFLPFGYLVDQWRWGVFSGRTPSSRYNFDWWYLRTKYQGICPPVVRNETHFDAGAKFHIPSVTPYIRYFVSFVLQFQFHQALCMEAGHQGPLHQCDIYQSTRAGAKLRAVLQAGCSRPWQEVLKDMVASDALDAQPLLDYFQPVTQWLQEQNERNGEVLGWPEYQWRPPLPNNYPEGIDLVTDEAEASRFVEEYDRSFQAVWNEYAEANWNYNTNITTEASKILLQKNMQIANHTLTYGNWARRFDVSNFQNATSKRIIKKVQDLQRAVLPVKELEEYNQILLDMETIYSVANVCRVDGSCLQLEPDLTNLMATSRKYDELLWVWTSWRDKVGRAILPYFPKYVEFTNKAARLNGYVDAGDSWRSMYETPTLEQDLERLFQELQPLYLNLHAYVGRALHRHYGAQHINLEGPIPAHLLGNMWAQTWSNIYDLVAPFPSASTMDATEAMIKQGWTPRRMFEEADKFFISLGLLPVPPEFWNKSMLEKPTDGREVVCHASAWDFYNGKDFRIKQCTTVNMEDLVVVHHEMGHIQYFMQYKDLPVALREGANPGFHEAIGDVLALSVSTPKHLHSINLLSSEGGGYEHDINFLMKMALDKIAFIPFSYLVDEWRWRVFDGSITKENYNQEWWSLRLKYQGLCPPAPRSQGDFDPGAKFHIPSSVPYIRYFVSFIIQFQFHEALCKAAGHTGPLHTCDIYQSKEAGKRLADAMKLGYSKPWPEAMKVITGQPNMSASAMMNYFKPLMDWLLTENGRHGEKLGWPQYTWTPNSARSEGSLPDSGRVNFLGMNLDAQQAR
# Measurement Protocol: cell-based or functional assay
Experimental Readout: ACE-inhibitory activity (hippuric acid formed from HHL, RP-HPLC), IC50 (µM)
Entry rule: numbers only, all in µM.

Reference set (3 entries):
{"Binder": "TLFGL", "Reported": 57.5}
{"Binder": "RSTGALAL", "Reported": 5840}
{"Binder": "TFTGA", "Reported": 694}

Next binder, ACE-inhibitory activity (hippuric acid formed from HHL, RP-HPLC), IC50 to be filled in.
Report ACE-inhibitory activity (hippuric acid formed from HHL, RP-HPLC), IC50 for TLRFALHGME (source: Takifugu flavidus skin hydrolysate (alcalase, <1 kDa fraction); also synthetic peptide (Fmoc solid phase, Genscript)) 93.5
